Measured values drawn from patent US20100022559A1 for this set.

Attribute: logP
- PROTOCOL DESCRIPTION: logP determination by HPLC on a reversed-phase column (C 18), EEC Directive 79/831 Annex V.A8
- Format: physicochemical
- TEST CONTEXT: method marker [b]; isomer A / isomer B / isomer mixture as noted in the cell

Some solved entries appear below for comparison.
C=C(CON=C(C)c1ccc(Cl)s1)CON=C(C)c1ccc(Cl)s1    5.88^[b]
CC(=NOCCOCCON=C(C)c1cccc(C)n1)c1cccc(C)n1    1.84^[b]

Give its logP value. Item: CC(=NOCCON=C(C)c1ccccn1)c1ccccn1
2.21^[b]

# get_value(readout='logP', item= C=C(CON=C(C)c1ncc(C(F)(F)F)cc1Cl)CON=C(C)c1ncc(C(F)(F)F)cc1Cl )
5.82^[b]

###

- PROTOCOL DESCRIPTION: logP determination by HPLC on a reversed-phase column (C 18), EEC Directive 79/831 Annex V.A8
- Assay type: physicochemical
- TEST CONTEXT: method marked [c] in Table 1
Listed here: items and their measured logP.

CC(=NOCCC(C)ON=C(C)c1nc(C)ccc1C)c1nc(C)ccc1C (single isomer, unassigned) [compound 758]    4.03^[c]
CCC(CON=C(C)c1nc(C)ccc1C)CON=C(C)c1nc(C)ccc1C (single isomer, unassigned) [compound 750]    4.46^[c]
CC(=NOCC(CON=C(C)c1cccc(C)n1)Cc1ccccc1)c1cccc(C)n1 (stereo not drawn)    6.34^[c]
CC(=NOCC1(CON=C(C)c2cc(C)cc(C)n2)CCCCC1)c1cc(C)cc(C)n1    7.36^[c]
CCC(CON=C(C)c1cccc(C)n1)CON=C(C)c1cccc(C)n1 (stereo not drawn)    5.97^[c]

// logP lookup, key: CC(=NOCC(CON=C(C)c1cccc(C)n1)C(C)C)c1cccc(C)n1 (stereo not drawn)
6.40^[c]

###

Below is a list of entries, each paired with its recorded logP value.
- PROTOCOL DESCRIPTION: logP determination by HPLC on a reversed-phase column (C 18), EEC Directive 79/831 Annex V.A8
- Type: physicochemical
- TEST CONTEXT: value marked [a]

In the examples that follow, each entry is paired with its recorded logP.
CCC(=NOCC(C)(C)CON=C(CC)c1ccc(C)c(C)n1)c1ccc(C)c(C)n1    5.58^[a]
CC(=NOCC(C)CON=C(C)c1ccc2c(n1)CCC2)c1ccc2c(n1)CCC2 (stereo not shown)    4.14^[a]
Cc1cccc(C(=NOCCON=C(c2cccc(C)n2)C(C)C)C(C)C)n1 (mixture of isomers)    4.03^[a]

// lookup logP for CC(=NOC(=O)NCCCC(C)CNC(=O)ON=C(C)c1ccc(C)c(C)n1)c1ccc(C)c(C)n1 (stereo not shown)
2.55^[a]

Quick one: logP of CC(=NOC(=O)NCCCC(C)CNC(=O)ON=C(C)c1cc(C)cc(C)n1)c1cc(C)cc(C)n1 (stereo not shown) ?
2.06^[a]

Look at this molecule and give its reported logP. CC(=NOC(C)C(C)C(C)ON=C(C)c1cc(C)cc(C)n1)c1cc(C)cc(C)n1 (mixture of isomers)
3.60^[a]

Any idea what logP was measured for CC(=NOCC(C)(C)CON=C(C)c1ccc(C)c(C)n1)c1cccc(C)n1 ?
4.96^[a]

Which logP is reported for this molecule? C=C(CON=C(SCCC)c1cccc(C)n1)CON=C(SCCC)c1cccc(C)n1
4.9^[a]

Given the entry CC(=NOCCCON=C(C)c1cccc(C(F)F)n1)c1cccc(C(F)F)n1 , report its measured logP.
5.21^[a]

Could you share which logP value was measured for CC(=NOCC(C)CON=C(C)c1nc(C)c(C)cc1C)c1nc(C)c(C)cc1C (stereo not shown) ?
2.19^[a]

Item C=C(CON=C(C)c1cccc(C)n1)CON=C(Cl)c1ccc(C)c(C)n1 has what recorded logP?
3.8^[a]

Item under review: Cc1cc(C)nc(C(C#N)=NOCC(C)CON=C(C#N)c2cc(C)cc(C)n2)c1 (stereo not shown) . Reported logP?
4.84^[a]

GET /values?readout=logP&item= CC(=NOCCCON=C(C)c1ccc2c(n1)CCCC2)c1ccc2c(n1)CCCC2
3.96^[a]

Quick one: logP of CC(=NOCC(C)CON=C(C)c1cccc(C)n1)c1ccc2c(c1)CC(C)O2 (stereo not shown) ?
5.27^[a]

Entry CC(=NOCCCON=C(C)c1nc(C)c(C)cc1C)c1nc(C)c(C)cc1C has what logP?
1.84^[a]

I am curious: what logP value has been reported for CC(=NOC1CCCC(ON=C(C)c2cccc(C)n2)C1)c1cccc(C)n1 (mixture of isomers) ?
4.96^[a]

###

Below: a set of entries, each annotated with reported logP.
- PROTOCOL DESCRIPTION: logP determination by HPLC on a reversed-phase column (C 18), EEC Directive 79/831 Annex V.A8
- Assay type: physicochemical
- TEST CONTEXT: method marker [a] (footnote not shown); isomer A / isomer B / isomer mixture as noted in the cell

These solved cases illustrate the format of a correct answer.
CCC(=NOCC(C)CON=C(CC)c1cccc(C)n1)c1cccc(C)n1 (centres unmarked)    5.40^[a]
CCC(=NOCCCON=C(CC)c1cccc(C)n1)c1cccc(C)n1    4.44^[a]
Cc1cccc(C(CS(C)(=O)=O)=NOCC(C)CON=C(CS(C)(=O)=O)c2cccc(C)n2)n1 (centres unmarked)    3.08^[a]
CC(=NOCCON=C(C)c1cccc(C)n1)c1cccc(C)n1 (mixture of isomers)    2.22^[a]
CCC(=NOCCCCON=C(CC)c1cccc(C)n1)c1cccc(C)n1 (mixture of isomers)    4.86^[a]
CC(=NOCC(C)CON=C(C)c1cccc(C)n1)c1cccc(C)n1 (centres unmarked)    2.31^[a]
CC(=NOCCCON=C(C)c1ccc(C)cn1)c1ccc(C)cn1    2.90^[a]

API: the following record is the query input.
Field request: logP | item: Cc1cccc(C(CS(C)(=O)=O)=NOCCCON=C(CS(C)(=O)=O)c2cccc(C)n2)n1
2.75^[a]

###

- PROTOCOL DESCRIPTION: logP determination by HPLC on a reversed-phase column (C 18), EEC Directive 79/831 Annex V.A8
- Type: physicochemical
- TEST CONTEXT: method marker [b]; isomer A / isomer B / isomer mixture as noted in the cell
- Description: The stated logP values were determined in accordance with EEC Directive 79/831 Annex V.A8 by HPLC (high performance liquid chromatography) on a reversed-phase column (C 18). Temperature: 43° C.
# logP annotations

CC(=NOCC1(CON=C(C)c2cccc(C)n2)CC1)c1cccc(C)n1    3.44^[b]
CC(=NOCCCON=C(C)c1sc(C)nc1C)c1sc(C)nc1C    3.10^[b]
C=C(CON=C(C)c1ccccn1)CON=C(C)c1cccc(C)n1 (single isomer, unassigned)    3.10^[b] (isomer A)
CC(=NOCCCON=C(C)c1nc(C)c(C)s1)c1nc(C)c(C)s1    5.03^[b]

Next molecule, please.
Fill blank: measured logP of the molecule C=C(CON=C(C)c1nc(C)cc(C)n1)CON=C(C)c1nc(C)cc(C)n1 is ____.
2.91^[b]

###

Listing of recorded logP by entry.
- PROTOCOL DESCRIPTION: logP determination by HPLC on a reversed-phase column (C 18), EEC Directive 79/831 Annex V.A8
- Format: physicochemical
- TEST CONTEXT: value marked [a]

CCC(=NOCC(C)(C)CON=C(CC)c1cccc(C)n1)c1cccc(C)n1    6.11^[a]
CC(=NOCC(C)(C)CON=C(C)c1cccc(C2CC2)n1)c1cccc(C2CC2)n1    7.36^[a]
Cc1cccc(C(C#N)=NOCC(C)CON=C(C#N)c2cccc(C)n2)n1 (stereo not shown)    4.20^[a]

Please turn your attention to the following entry.
State the recorded logP for this entry: CC(=NOCC1(CON=C(C)c2cc(Cl)cc(C)n2)CC1)c1cc(Cl)cc(C)n1
7.02^[a)

###

- PROTOCOL DESCRIPTION: logP determination by HPLC on a reversed-phase column (C 18), EEC Directive 79/831 Annex V.A8
- Format: physicochemical
- TEST CONTEXT: reversed-phase HPLC column (C 18); [a] acidic range, pH 2.3, 0.1% aqueous phosphoric acid and acetonitrile; read-out: logP
REPORTED ENDPOINT: chromatographic logP
Give the value as a plain number.

Give its chromatographic logP value. Item: C/C(=N\OCC1(CON)CC1)c1ccc(C)c(C)n1
0.53

###

Recorded logP for the following compounds
- PROTOCOL DESCRIPTION: logP determination by HPLC on a reversed-phase column (C 18), EEC Directive 79/831 Annex V.A8
- Format: physicochemical
- TEST CONTEXT: method marker [b]; isomer A / isomer B / isomer mixture as noted in the cell

Answered cases to consult:
C=C(CON=C(C)c1cccnc1Cl)CON=C(C)c1cccnc1Cl [compound 148]    3.53^[b]
CC(=NOCCCON=C(C)c1ncc(Cl)cc1Cl)c1ncc(Cl)cc1Cl [compound 56]    5.78^[b]
C=C(CON=C(C)c1nccc(OCC)n1)CON=C(C)c1nccc(OCC)n1 [compound 252]    3.42^[b]
C=C(CO/N=C(\N)c1nc(C2CC2)cc(C2CC2)n1)CO/N=C(\N)c1nc(C2CC2)cc(C2CC2)n1 [compound 47]    3.33^[b]
C=C(CON=C(C)c1nc(C)c(C)s1)CON=C(C)c1nc(C)c(C)s1 (single isomer, unassigned) [compound 68]    5.25^[b]
C=C(CO/N=C(\N)c1nc(C)cc(C)n1)CO/N=C(\N)c1nc(C)cc(C)n1 [compound 8]    1.80^[b]

May I ask what logP has been recorded for CC(=NOCC(F)CON=C(C)c1cccc(C)n1)c1cccc(C)n1 (centres unmarked) [Compound 212] ?
2.94^[b]

Quick check: logP of C=C(CON=C(C)c1ccc(C)cn1)CON=C(C)c1cccc(C)n1 [compound 209] ?
3.33^b]

Param item = C=C(CON=C(C)c1cccc(C)n1)CON=C(CC(C)C)c1ncccc1C (mixture of isomers) [compound 154] ; retrieve measured logP.
5.08^[b]
